ASSAY PROTOCOL: Binding affinity to sigma 2 receptor (unknown origin) by radioligand binding assay
Design: species or system Homo sapiens
PROPERTY: Ki
Answer as a quantity: numeral, then unit.

Enquiry: State the recorded Ki for this entry: COc1cc2c(NC3CCN(C(C)C)CC3)nc(N3CCC(F)(F)CC3)nc2cc1OCCCN1CCCC1
Return: 900 nM

----------
Each record here notes measured EC50.
System: MDA-MB-231
ASSAY PROTOCOL: cells
SETUP CONDITIONS: Homo sapiens, MDA-MB-231, 48 h
Description: Cytotoxicity against human MDA-MB-231 cells after 48 hrs by Alamar Blue assay
Please reply with the bare figure in µM and do not write the unit itself.

Enquiry: Form field - read-out: EC50; system: MDA-MB-231; submitted item: COc1cc2c(NC3CCN(C(C)C)CC3)nc(N3CCOCC3)nc2cc1OCCCN1CCCC1
Return: 23.7

Enquiry: Form field - read-out: EC50; system: MDA-MB-231; submitted item: COc1cc2c(NC3CCN(C4CC4)CC3)nc(N3CCC(F)(F)CC3)nc2cc1OCCCN1CCCC1
Return: 14.7

Enquiry: Form field - read-out: EC50; system: MDA-MB-231; submitted item: COc1cc2c(NC3CCN(C(C)C)CC3)nc(N3CCC(F)(F)CC3)nc2cc1OCCCN1CCCC1
Return: 16.7
